// data source = PubChem BioAssay (NCI)

- protocolText: NCI Yeast Anticancer Drug Screen. Data for the bub3 strain (AID 167)
- runParameters: S. cerevisiae bub3 mutant strain, at 50.0 µM (retest, dose inferred, filed as 5.0), hits give high values
The panel holds about 79,000 compounds, 15% with a hit somewhere; the sample as a whole holds those more often. Calls of active or inactive are those of the source. Rule as the data show it: active = growth inhibition above about 70%; inactive = the rest.
parameterMeasured: growth inhibition

>  <molecule>
CC1=CC(=C(c2ccc(N)c(C)c2)c2ccc(N)c(C)c2)C=CC1=N

>  <readoutValue>
97% (active)

$$$$
>  <molecule>
CC(C)=CCc1c2c(c(O)c3c(=O)c(-c4ccc(O)c(O)c4)coc13)C=CC(C)(C)O2

>  <readoutValue>
92% (active)

$$$$
>  <molecule>
CCCCCCCCCCCCCCN

>  <readoutValue>
99% (active)

$$$$
>  <molecule>
COc1ccc(C2CC(C)(N3CCCC3)Oc3cc4c(cc32)OCO4)cc1 (stereo not given)

>  <readoutValue>
74% (active)

$$$$
>  <molecule>
CC(C)(CN1CCCCC1)C(=O)/C=C/c1c(Cl)cccc1Cl

>  <readoutValue>
99% (active)

$$$$
>  <molecule>
S=C1N(c2ccc(Cl)cc2)C2=C(N=Nc3ccccc3)C(=Nc3ccccc3S2)N1c1ccccn1

>  <readoutValue>
99% (active)

$$$$
>  <molecule>
O=[N+]([O-])c1cn[n+]([O-])c2ccccc12

>  <readoutValue>
99% (active)

$$$$
>  <molecule>
C[N+](C)([O-])CCCNc1c2ccccc2nc2cccc([N+](=O)[O-])c12

>  <readoutValue>
74% (active)

$$$$
>  <molecule>
N#CCC(=O)N/N=C(\c1ccccc1)C(c1ccccc1)C1(O)C(=O)Nc2c(Cl)ccc(Cl)c21 (stereo not given)

>  <readoutValue>
30% (inactive)

$$$$
>  <molecule>
CC(C)(CN1CCCCC1)C(=O)CC(SCCS(=O)(=O)O)c1ccccc1 (stereo not given)

>  <readoutValue>
32% (inactive)

$$$$
>  <molecule>
CC1(C)CC(=O)C(/C=N/c2nc(-c3ccc(Br)cc3)cs2)=C(O)C1

>  <readoutValue>
98% (active)

$$$$
>  <molecule>
CC1=CC(C)(C)SC(SSSC2=NC(C)=CC(C)(C)S2)=N1

>  <readoutValue>
24% (inactive)

$$$$
>  <molecule>
CCOP(=O)(OCC)/C(C#N)=C/c1cccc(Oc2ccccc2)c1

>  <readoutValue>
95% (active)

$$$$
>  <molecule>
CCN(CC)CCCNc1ccc([N+](=O)[O-])c2nc3ccc(OC)cc3c(NCCCN(CC)CC)c12

>  <readoutValue>
6% (inactive)

$$$$
>  <molecule>
COc1cc2oc3ccccc3c(=O)c2cc1CSc1ccccc1N

>  <readoutValue>
71% (active)

$$$$
>  <molecule>
NC(=S)N1N=C2c3ccccc3CC[C@H]2[C@@H]1c1ccc(Cl)cc1

>  <readoutValue>
93% (active)

$$$$
>  <molecule>
CCN(CC)C(=S)N/N=C(\C)c1ccccc1O

>  <readoutValue>
98% (active)

$$$$
>  <molecule>
COc1ccc(C(C)c2cc3c(cc2OCC(C)=O)OCO3)cc1 (stereo not given)

>  <readoutValue>
66% (inactive)

$$$$
>  <molecule>
Cc1ccc(S(=O)(=O)Nc2cccc3cccnc23)cc1

>  <readoutValue>
23% (inactive)

$$$$
>  <molecule>
COc1ccc(C(=O)/C=C\c2ccc(Cl)c(Cl)c2)cc1

>  <readoutValue>
80% (active)

$$$$
>  <molecule>
CN(C)CCCn1c2c3ccccc3ccc2c2oc(=O)c3ccccc3c21

>  <readoutValue>
98% (active)

$$$$
>  <molecule>
CCCNCC(=O)O[C@]1(CC)C(=O)OCc2c1cc1n(c2=O)Cc2cc3ccccc3nc2-1

>  <readoutValue>
68% (inactive)

$$$$
>  <molecule>
CC(=O)N1C=Cc2c(c(C)c3c([nH]c4ccccc43)c2C)C1

>  <readoutValue>
86% (active)

$$$$
>  <molecule>
CCCCCCCCSC1=C(Cl)C(=O)C(OC)=C(OC)C1=O

>  <readoutValue>
6% (inactive)

$$$$
>  <molecule>
COC(=O)C1=C(C(=O)OC)CC(n2nnc(C(=O)OC)c2C(=O)OC)=CC1

>  <readoutValue>
1% (inactive)

$$$$
>  <molecule>
CCCCCCCCCCCCOCCOCCOCC(N)=O

>  <readoutValue>
97% (active)

$$$$
>  <molecule>
CC1=C(C)C(=O)C2=C(OCCO2)C1=O

>  <readoutValue>
35% (inactive)

$$$$
>  <molecule>
O=C(O)CNC(c1ccccc1)(c1ccccc1)c1ccccc1

>  <readoutValue>
97% (active)

$$$$
>  <molecule>
O=[N+]([O-])c1ccc2nc(=S)[nH]n2c1

>  <readoutValue>
76% (active)

$$$$
>  <molecule>
CN(C)CCNC(=Cc1ccc2ccccc2[n+]1C)NCCN(C)C

>  <readoutValue>
-2% (inactive)

$$$$
>  <molecule>
CC(C)CCC[C@@H](C)[C@H]1CC[C@H]2[C@@H]3CC[C@H]4C[C@H](N)CC[C@]4(C)[C@H]3CC[C@]12C

>  <readoutValue>
52% (inactive)

$$$$
>  <molecule>
O=C1c2cccc3cccc(c23)C(=O)N1CCNCCN1C(=O)c2cccc3cccc(c23)C1=O

>  <readoutValue>
1% (inactive)

$$$$
>  <molecule>
O=Cc1ccccc1C=O

>  <readoutValue>
76% (active)

$$$$
>  <molecule>
CC1=NN(C(=O)CC(=O)NC(=O)/C=C\c2ccccc2)C(=O)C1N=Nc1ccc([N+](=O)[O-])cc1 (stereo not given)

>  <readoutValue>
51% (inactive)

$$$$
>  <molecule>
Clc1ccc(/C(=C\c2ccccc2)Cn2ccnc2)cc1

>  <readoutValue>
97% (active)

$$$$
>  <molecule>
O=C1c2ccccc2C(=O)c2sc(Nc3ccccc3Cl)nc21

>  <readoutValue>
99% (active)

$$$$
>  <molecule>
COc1cccc(C(NC2=NCCC=N2)c2cc3c(cc2O)OCO3)c1O (stereo not given)

>  <readoutValue>
73% (active)

$$$$
>  <molecule>
S=C(NCc1ccccn1)N/N=C/c1ccccn1

>  <readoutValue>
99% (active)

$$$$
>  <molecule>
Cc1cc(C)c(S(=O)(=O)c2ccc(Cl)cc2)c(C)c1

>  <readoutValue>
20% (inactive)

$$$$
>  <molecule>
Cc1ccc(S(=O)(=O)N/N=C/C(Br)=C(/Br)C(=O)O)cc1

>  <readoutValue>
37% (inactive)

$$$$
>  <molecule>
CCC(=O)Nc1ccc(N=NN(C)C)cc1

>  <readoutValue>
34% (inactive)

$$$$
>  <molecule>
CCCCCCCCN1COCC(COc2ccccc2C)OC1 (stereo not given)

>  <readoutValue>
1% (inactive)

$$$$
>  <molecule>
NC(=O)NC1C(c2ccccc2)=C1c1ccccc1

>  <readoutValue>
-68% (inactive)

$$$$
>  <molecule>
O=C1C2=C(c3ccccc31)C(c1ccccc1)N1C(=O)CSC1=N2 (stereo not given)

>  <readoutValue>
92% (active)

$$$$
>  <molecule>
O=C1c2ccccc2N2OC3(N4CCCC4)CCCCC3C12c1ccccc1 (stereo not given)

>  <readoutValue>
92% (active)

$$$$
